This collection of values is drawn from patent US10004732B2.

Examples of molecules with documented log10 IC50 follow.
- System: IL-8-induced neutrophil shape change in human whole blood
- assayName: Whole blood neutrophil shape change assay (L)
- Format: cell-based
- particulars: Homo sapiens, Neutrophil, IL-8, human whole blood, read-out: Assay L WBSC IC50
Counter-ions that a name gives are not always drawn.
// do not treat as linear: log10 of IC50, unit nM

1) Cc1ccc(S(=O)(=O)NCCC2(O)CCCCC2)cc1-c1cnc(N)c(-n2cncn2)n1 [Example 127.37] : 3.79
2) CC(C)(O)CNS(=O)(=O)c1ccc(Cl)c(-c2cnc(N)c(-n3cncn3)n2)c1 [Example 37] : 3.19
3) Cc1ccc(S(=O)(=O)NCCN)cc1-c1cnc(N)c(-n2cncn2)n1 [Example 33, trifluoroacetic acid salt] : 2.87
4) Cc1cn(-c2nc(-c3cc(S(=O)(=O)NCCCO)ccc3C)cnc2N)cn1 [Example 57] : 3.10
5) Cc1ncc(-c2nc(-c3cc(S(=O)(=O)NCC4COC4)ccc3C)cnc2N)s1 [Example 45.1] : 2.49

Q: Give recorded log10 IC50 with IL-8-induced neutrophil shape change in human whole blood for the following molecule: Cc1ccc(S(=O)(=O)NCC(F)F)cc1-c1cnc(N)c(-n2cncn2)n1 [Example 34]
Ans: 2.91

Q: Give recorded log10 IC50 with IL-8-induced neutrophil shape change in human whole blood for the following molecule: COCCCNS(=O)(=O)c1ccc(C)c(-c2cnc(N)c(-c3ccnc(C)c3)n2)c1 [Example 129.11]
Ans: 3.75

Q: Give recorded log10 IC50 with IL-8-induced neutrophil shape change in human whole blood for the following molecule: Cc1cnn(-c2nc(-c3cc(S(=O)(=O)N[C@H]4CC[C@H](O)CC4)ccc3C)cnc2N)c1 [Example 111]
Ans: 2.80

Q: Give recorded log10 IC50 with IL-8-induced neutrophil shape change in human whole blood for the following molecule: Cc1ccc(S(=O)(=O)N[C@H](C#N)CO)cc1-c1cnc(N)c(-n2cncn2)n1 [Example 127.48]
Ans: 3.40

Q: Give recorded log10 IC50 with IL-8-induced neutrophil shape change in human whole blood for the following molecule: Cc1ccc(S(=O)(=O)NC[C@H]2CCNC2)cc1-c1cnc(N)c(-n2cncn2)n1 [Example 127.58, trifluoroacetic acid salt]
Ans: 4.37

Q: Give recorded log10 IC50 with IL-8-induced neutrophil shape change in human whole blood for the following molecule: Cc1ccc(S(=O)(=O)NC[C@@H]2CCOC2)cc1-c1cnc(N)c(-n2cncn2)n1 [Example 127.26]
Ans: 3.25

* * *

- system: PI 3-kinase beta (Homo sapiens, UniProt P42338)
- Sequence (P42338 whole entry): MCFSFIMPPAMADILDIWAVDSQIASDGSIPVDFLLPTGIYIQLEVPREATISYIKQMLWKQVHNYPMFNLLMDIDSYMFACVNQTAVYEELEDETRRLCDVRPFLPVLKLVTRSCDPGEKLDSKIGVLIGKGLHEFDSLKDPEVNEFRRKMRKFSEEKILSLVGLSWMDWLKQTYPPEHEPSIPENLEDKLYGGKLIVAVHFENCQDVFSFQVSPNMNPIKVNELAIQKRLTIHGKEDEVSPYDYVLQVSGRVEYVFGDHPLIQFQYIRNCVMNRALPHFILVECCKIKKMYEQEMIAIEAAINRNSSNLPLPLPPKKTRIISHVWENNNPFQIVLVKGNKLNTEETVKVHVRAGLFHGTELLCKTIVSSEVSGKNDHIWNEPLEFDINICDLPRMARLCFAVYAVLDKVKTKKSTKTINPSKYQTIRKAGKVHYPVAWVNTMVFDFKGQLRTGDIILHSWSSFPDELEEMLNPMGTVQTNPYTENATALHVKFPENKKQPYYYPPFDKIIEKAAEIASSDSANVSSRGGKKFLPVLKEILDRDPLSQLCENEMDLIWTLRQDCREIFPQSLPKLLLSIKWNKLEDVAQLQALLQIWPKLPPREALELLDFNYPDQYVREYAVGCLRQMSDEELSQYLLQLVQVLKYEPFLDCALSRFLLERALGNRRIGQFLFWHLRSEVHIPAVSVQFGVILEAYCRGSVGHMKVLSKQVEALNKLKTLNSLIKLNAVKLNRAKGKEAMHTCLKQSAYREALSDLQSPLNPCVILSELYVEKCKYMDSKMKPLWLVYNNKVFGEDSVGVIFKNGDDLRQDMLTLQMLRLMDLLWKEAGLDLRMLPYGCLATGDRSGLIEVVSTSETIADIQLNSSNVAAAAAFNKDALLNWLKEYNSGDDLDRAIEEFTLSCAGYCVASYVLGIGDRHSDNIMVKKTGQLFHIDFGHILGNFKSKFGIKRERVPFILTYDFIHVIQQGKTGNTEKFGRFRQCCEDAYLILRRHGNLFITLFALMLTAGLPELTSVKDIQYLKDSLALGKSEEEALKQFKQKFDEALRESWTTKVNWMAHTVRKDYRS
- Sequence (Q63787 whole entry partner): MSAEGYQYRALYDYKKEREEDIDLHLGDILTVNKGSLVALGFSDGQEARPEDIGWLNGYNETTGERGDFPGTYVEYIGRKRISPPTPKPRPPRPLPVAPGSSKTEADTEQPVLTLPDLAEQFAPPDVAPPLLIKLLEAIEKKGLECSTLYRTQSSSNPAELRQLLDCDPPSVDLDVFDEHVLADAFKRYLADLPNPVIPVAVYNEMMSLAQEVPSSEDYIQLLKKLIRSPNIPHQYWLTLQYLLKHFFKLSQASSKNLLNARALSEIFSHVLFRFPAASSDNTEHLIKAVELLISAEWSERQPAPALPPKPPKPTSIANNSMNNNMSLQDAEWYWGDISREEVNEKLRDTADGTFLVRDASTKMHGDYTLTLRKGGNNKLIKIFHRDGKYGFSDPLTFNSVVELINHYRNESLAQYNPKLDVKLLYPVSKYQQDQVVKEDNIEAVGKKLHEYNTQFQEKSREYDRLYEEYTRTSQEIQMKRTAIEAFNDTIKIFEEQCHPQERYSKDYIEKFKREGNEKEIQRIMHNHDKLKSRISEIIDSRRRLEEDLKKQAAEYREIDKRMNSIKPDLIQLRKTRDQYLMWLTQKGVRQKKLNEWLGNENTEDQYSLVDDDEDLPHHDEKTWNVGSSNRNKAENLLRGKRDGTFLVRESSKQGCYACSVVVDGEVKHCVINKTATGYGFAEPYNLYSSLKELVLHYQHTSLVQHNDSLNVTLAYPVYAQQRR
- assayName: Cellular assay I1, p-Akt (S473) in Rat-1 cells, Surefire format
- Assay type: cell-based
- particulars: non-asterisked data: version I1 (Surefire format), Rat-1 cells; read-out: Assay I PI3Kβ IC50
Examples of compounds with documented IC50 follow.
# unit: µM | format: bare number

Some entries whose results are on file:
1. Cc1ccc(S(=O)(=O)NCCC(C)(C)O)cc1-c1cnc(N)c(-c2cccnc2F)n1 : 3.81
2. Cc1cc(Cl)c(S(=O)(=O)NCC(C)(C)O)cc1-c1cnc(N)c(-n2cncn2)n1 : 0.81

Here is another compound to look at.
Q: Suppose we examine the compound `CCCn1cc(-c2nc(-c3cc(S(=O)(=O)NCCC(C)(C)O)ccc3C)cnc2N)cn1` ; what IC50 value has been reported?
Ans: 4.1
